test system: K4 kissing-loop RNA reporter; experiment: apparent KD of K4 kissing-loop reporter; higher = weaker reporter binding; conditions: Eterna round: R107; input ligand: FMN 200 uM;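 also: bound reporter read as fluorescence of individual clusters on recovered sequencing chips by microscopy, with normalized cluster intensities fitted with a binding model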
Measured attribute: apparent KD of K4 kissing-loop reporter (nM)
# unit: nM | format: bare number

AGGCCACACAGCGAGUGAUGUUUGCGUUAUCGAGGACCGGUACGGCCGCCACUCGGCCUUUAGCGCCUUACCAAUUAGGUGUUGC [theeternabot_sameState_KL_Trp_A_46]; 453
GCCGUAGAUUGAAGGAGCGUUCUUACUGAGUACGGCAACCGGAAGUGAUGUUUCCAGGUGGAACAGGUAGGUCGCAAUCUACGGC; 102

Given the sequence AAGUGUCAUUAGACACAGACUACAAUACGCUAGGAUAUGCUGAUAAGCAGAAGGAGUGAUGUUCCUUUCAAGUAGUCAAUUAAAU [FmnAX 22 Mat Inspired #SwitchBubble #StaticStem #K4Late] , write its reported apparent KD of K4 kissing-loop reporter.
319
